experiment.notes: Acute toxicity (LD 50) in the mouse
Format: in vivo
condition.details: mouse, in vivo, po
quantity.name: LD50 (mg/kg)
Dear colleague, please return just the value in mg/kg, with no unit written.

molecule	quantity.name	reported
CC(=O)N[C@@H](Cc1c[nH]c2ccccc12)C(=O)O [Magnesium N-acetyl tryptophanate L(+), L(+) magnesium N-acetyl tryptophanate]	LD50	18200
CC(=O)N[C@@H](Cc1c[nH]c2ccccc12)C(=O)O [Lithium N-acetyl tryptophanate L(+)]	LD50	10500
CC(=O)NC(Cc1c[nH]c2ccccc12)C(=O)O (racemic) [Lithium N-acetyl tryptophanate (DL), Li N-acetyl tryptophan (DL)]	LD50	8700

Can you share its LD50? I mean this molecule: CC(=O)NC(Cc1c[nH]c2ccccc12)C(=O)O (racemic) [Magnesium N-acetyl tryptophanate (DL), magnesium N-acetyl tryptophanate (DL)] 16500

----------
experiment.notes: Acute toxicity (LD-50) in the rat
condition.details: in vivo, ip, intraperitoneal
quantity.name: LD50

Can you share its LD50? I mean this molecule: CC(=O)NC(Cc1c[nH]c2ccccc12)C(=O)O (stereo not shown) [Magnesium N-acetyl tryptophanate, magnesium N-acetyl tryptophanate] 1350 mg/kg
